Test system: A549 NSCLC
assay-comment: NCI tumour cell line growth inhibition, 48 h
observation-type: TGI (µM)

compound	result-unit	modifier-sign	result-number
COc1nc(Cl)nc(N[C@H](C)c2c3ccccc3cc3ccccc23)n1	µM	=	96.2
Cc1cccc(N2C(=O)/C(=C/C(Cl)=C/c3ccc([N+](=O)[O-])cc3)SC2=S)c1C	µM	>	100
CC(=O)C(=Cc1cn(C)c(=O)n(C)c1=O)C(C)=O	µM	=	565
OCc1ccc(N(Cc2ccc(F)cc2)Cc2ccc(F)cc2)cc1Cl	µM	=	22.1
CSc1nc(Nc2cccc(NC(=O)CCl)c2)c(C#N)c(-c2cccc([N+](=O)[O-])c2)n1	µM	=	49.7
Cc1n[nH]c2ccccc2c1=O	µM	>	100
O=C1C(=O)c2c(nc3ccc(C(F)(F)F)cn23)-c2ccccc21	µM	=	1.23
COc1ccc(-n2cc(-c3ccc(OC)c(OC)c3)[nH]c2=O)cc1	µM	>	100
O=c1c(-c2ccc3c(c2)OCO3)coc2c3c(ccc12)OCO3	µM	>	100
COc1cc2c(cc1C)NC(=O)/C2=C/c1ccnc2ccccc12	µM	>	50
O=C(O)CSC(CC(=O)c1ccc(Cl)cc1)c1ccc(Cl)cc1 (stereo unspecified)	µM	>	100

---

System: IGROV1 ovarian
assay-comment: NCI tumour cell line growth inhibition, 48 h

compound	TGI
CCCCCCCC(=O)OCC/C=C/C1OC1C1OC(=O)/C=C\C=C\C(=O)N(C(C)=O)C(=O)/C=C(/C)CCC2OC2C1OC(=O)NC(C)=O (stereo not given)	8.28 µM
C=C1c2nc3ccccc3n2C=C(c2ccc(C)cc2)N1c1ccc(OC)cc1	> 100 µM
NC(=O)[C@H](Cc1ccc(O)cc1)Nc1c(O)c2c(c(O)c1Cl)C(=O)C=CC2=O	4.66 µM
COC(=O)c1c2c(cc3c1CC1(Cc4cc5c(c(C=O)c4C1)CCC5)C3)CCC2 (stereo not given)	> 100 µM
O=c1c2cc(Br)cc(Br)c2[nH]c(=S)n1-c1ccc(N=Nc2ccc(O)c3cccnc23)cc1	34.5 µM
Cc1cn(CCCCCCOC(=O)NC(CCCNC(N)=O)C(=O)O)c(=O)[nH]c1=O (stereo not given)	> 100 µM
COc1cc(/C=N/NC(=O)c2cnn3c2NC(c2ccccc2)C3)ccc1OC1CCCC1 (stereo not given)	9.4 µM
O=C1NC(O)c2cc3ccccc3cc2O1 (stereo not given)	> 100 µM
c1ccc2c(c1)[nH]c1c2nc2ccccn21	> 100 µM
CCOC(=O)c1c(-c2ccc(OC)cc2)ccn1C	> 10 µM
COc1cc2c(cc1OCCNC(=O)/C=C1\C[C@H]3C=Nc4cc(OCc5ccccc5)c(OC)cc4C(=O)N3C1)N=C[C@@H]1CCCN1C2=O	5.64 µM
CCOC(=O)Nc1ccc2nc(-c3cscn3)[nH]c2c1	> 100 µM
COC1/C=C/C(C)C(O)CC(O)/C=C/C(C)C(C(C)C(OC)C(C)CCC(=O)C(C)C(C/C=C/N(C)C=O)OC)OC(=O)/C=C/C=C(\C)CC(OC)CC2=CC(=O)O[C@@H](C(C)C(OC)C1)[C@H]2O (stereo not given in full)	0.0689 µM
CCOC(=O)c1cc(-c2ccc(OC)cc2)c([N+](=O)[O-])[nH]1	> 10 µM
COc1ccc(N2C(=O)C3c4[nH]c5c(C)cccc5c4C4CCC(C(C)C)CC4C3C2=O)cc1 (stereo not given)	23.5 µM
O=c1[nH]ccc(CNC23CC4CC(CC(C4)C2)C3)c1O	> 100 µM
Cn1/c(=N\N=C2\C=C3CCCCC3(C)CC2)sc2ccccc21 (stereo not given)	> 100 µM
CC(C)(C)C#COC(=O)c1ccccc1	> 100 µM
N/N=C(/Cc1ccccc1)NNO	> 100 µM
CCOC(=O)NC(=S)N(CC(=O)c1cc(OC)c(OC)c(OC)c1)c1ccc(Cl)cc1	> 100 µM

---

Tested on: M14 melanoma
assay-comment: NCI tumour cell line growth inhibition, 48 h; in the data active = GI50 below about 0.43 µM; inactive = the rest
Labels: active, inactive

compound	label-value
O=c1c(Cc2ccc3c(c2)OCO3)nnc2sc(-c3cc(F)c(Cl)cc3Cl)nn12	inactive
CCCCCCCC(=O)OCC/C=C/C1OC1C1OC(=O)/C=C\C=C\C(=O)N(C(C)=O)C(=O)/C=C(/C)CCC2OC2C1OC(=O)NC(C)=O (stereo not given)	inactive
CCN(CC)C(=S)SSC(C)C	inactive
O=C(Nc1n[nH]c2cc(-c3cc(F)ccc3F)ccc12)C1CC1	inactive
[N-]=[N+]=CC(=O)CCC(N)C(=O)O (stereo not given)	inactive
COc1ccc(-n2cc(-c3ccc(OC)c(OC)c3)[nH]c2=O)cc1	inactive
CC(C)(C)C[C@H]1N[C@@H](C(=O)NC2CCC(O)CC2)[C@H](c2cccc(Cl)c2F)[C@@]12C(=O)Nc1cc(Cl)ccc12 (stereo not given in full)	inactive
C[C@@]1(F)[C@H](O)[C@@H](CO)O[C@H]1n1ccc(=O)[nH]c1=O	inactive
Cn1c(COC(=O)NCCc2ccccn2)nc2c(N3CCOCC3)nc(Cl)nc21	inactive
O=c1[nH]c(C2CCCN2)nc2c1oc1ccc(Cl)cc12 (stereo not given)	inactive
COc1ccc(-n2c(=S)sc3c(Cl)nc(C)nc32)c(OC)c1	inactive
O=C1c2cc3c(cc2-c2c1c1cc(F)c(F)cc1c(=O)n2CCCn1ccnc1)OCO3	active
CC1=NN(c2cccc(Cl)c2)C(=O)/C1=C\c1cn(CC(O)CN2CCCCC2)c2ccccc12 (stereo not given)	inactive
COc1ccc2[nH]c(C(=O)N3CCN(C(=O)OCc4ccc5c(Cl)cc(Cl)c(O)c5n4)CC3)cc2c1	inactive
CCCCCCCC/C=C/CCCCCCCC1=NC(C)(C)CN1C(C)(C)CO	inactive

---

Test system: HS 578T breast
assay-comment: NCI tumour cell line growth inhibition, 48 h

molecule	TGI
Nc1[nH]c(=O)nc2c1ncn2C1OC(CO)C(O)C1O (stereo unspecified)	> 100 µM
CCOC(=O)NC(=S)N(CC(=O)c1cc(OC)c(OC)c(OC)c1)c1ccc(Cl)cc1	> 100 µM
COC(=O)[C@]1(c2cc3ccccc3n2S(=O)(=O)c2ccccc2)CC2CN(C(=O)OCc3ccccc3)C1C1OC(C)(C)OC21 (stereo partly specified)	> 100 µM
CC1=NN(C(=O)CC(=O)Nc2cccc(C)c2)C(=O)C1N=Nc1ccc(S(=O)(=O)CCOS(=O)(=O)O)cc1 (stereo unspecified)	15.3 µM
N#Cc1c(-c2ccc([N+](=O)[O-])cc2)c(C#N)c(=O)n(NS(=O)(=O)c2ccccc2)c1S	58.5 µM
OCC(O)C(O)C(O)C(/C=N\Nc1ncnc2c(Br)cc(Br)cc12)=N/Nc1ncnc2c(Br)cc(Br)cc12 (stereo unspecified)	> 100 µM
COC1=CC(c2ccc[nH]2)=N/C1=C\c1[nH]c(C)c(C(=O)CCCCCCCCC(=O)O[C@H]2CC[C@H]3C4CCc5cc(O)ccc5C4CC[C@]23C)c1C (stereo partly specified)	> 33.9 µM
CCc1nc(N)c2nc(-c3cccs3)oc2n1	> 100 µM
OCc1ccc(N(Cc2ccc(F)cc2)Cc2ccc(F)cc2)cc1Cl	45.5 µM
O=C1NC(=NCCc2ccc(Cl)cc2)S/C1=C\c1ccc2ncccc2c1	> 25 µM
O=C(O)C(Cc1ccccc1)NCc1c(O)ccc2c(-c3ccccc3)cc(=O)oc12 (stereo unspecified)	> 100 µM

---

Tested on: OVCAR-8 ovarian
assay-comment: NCI tumour cell line growth inhibition, 48 h
Listed here are compounds together with their documented TGI.

compound	TGI
CC1=C(CO)C(=O)OC(C(C)C2CCC3C4CC5OC56C(O)C(N5CC5)=CC(=O)C6(C)C4CCC23C)C1 (centres undefined)	5.78 µM
O=S(=O)(NC1=NCCN1C(=S)SN1CCn2c1nsc2=S)c1ccc(Cl)cc1	> 100 µM
C[C@]12CC[C@H]3[C@@H](CC=C4C[C@@H](N5CCCC5)CC[C@@]43C)[C@@H]1C[C@H](N1CCCCC1)[C@@H]2O	> 100 µM
C=CCC(O[Si](C)(C)C(C)(C)C)c1cc(O[Si](C)(C)C(C)(C)C)ccc1OC (centres undefined)	> 100 µM
O=C(Nc1sc2c(c1C(=O)O)CCCC2)c1ccco1	> 50 µM
CCOC(=O)NC(=S)N(CC(=O)c1cc(OC)c(OC)c(OC)c1)c1ccc(Cl)cc1	> 100 µM
COC(=N)C1(C#N)NC(c2ccsc2)C(C#N)(C#N)NC1c1ccsc1 (centres undefined)	> 100 µM
O=c1c2cccnc2ncn1CCCN1CCCCC1	> 100 µM
CCOc1ccc(NC(=O)/C(CC(=O)c2c[n+](=O)c3ccccc3n2[O-])=N\OCCCc2ccccc2)cc1	> 100 µM

---

Test system: HOP-92 NSCLC
assay-comment: NCI tumour cell line growth inhibition, 48 h
I would appreciate it if you labelled entries yes (1) when TGI is 7 µM or higher, otherwise no (0).

compound	label-value
O=C1NC(=NCCc2ccc(Cl)cc2)S/C1=C\c1ccc2ncccc2c1	yes (1)
COc1ccc2[nH]c(C(=O)N3CCN(C(=O)OCc4ccc5c(Cl)cc(Cl)c(O)c5n4)CC3)cc2c1	no (0)
NC(N)=N/N=C\c1ccc(OCc2ccccc2)cc1	no (0)
C=C(NC(=O)C(=C)NC(=O)c1ccc2c(n1)-c1coc(n1)C(=C)NC(=O)C(=C)NC(=O)c1nc(oc1C)C(=C)NC(=O)C(C(C)(C)O)NC(=O)C(=C)NC(=O)c1coc(n1)/C(=C/C)NC(=O)[C@H]([C@@H](C)O)NC(=O)c1csc-2n1)C(N)=O (stereo partly drawn)	yes (1)
O=c1c(Cc2ccc3c(c2)OCO3)nnc2sc(-c3cc(F)c(Cl)cc3Cl)nn12	yes (1)
O=C(O)C(Cc1ccccc1)NCc1c(O)ccc2c(-c3ccccc3)cc(=O)oc12 (stereo not drawn)	yes (1)
NCCO/C=C/C(N)C(=O)O (stereo not drawn)	yes (1)
CC(C)(C)C1CCC2c3c([nH]c4ccccc34)C3C(=O)N(c4ccc([N+](=O)[O-])cc4)C(=O)C3C2C1 (stereo not drawn)	yes (1)
Cc1cccc(C2NC(=O)c3ccccc3N2)c1 (stereo not drawn)	yes (1)
COc1ccccc1NC(=O)C(=O)C(C(=O)c1ccccc1F)C1OC(=O)c2ccccc21 (stereo not drawn)	yes (1)
CC(C)(C)C[C@H]1N[C@@H](C(=O)NC2CCC(O)CC2)[C@H](c2cccc(Cl)c2F)[C@@]12C(=O)Nc1cc(Cl)ccc12 (stereo partly drawn)	yes (1)
Nc1[nH]c(=O)nc2c1ncn2C1OC(CO)C(O)C1O (stereo not drawn)	yes (1)
